# PSV neutralization IC50 per record follows
# TESTED_SYSTEM: SARS-CoV-1 spike on pseudovirus (SARS-CoV-1, UniProt P59594 14-1255)
# EXPERIMENT: cell-based or functional assay

Look over these answered cases.
[Q] Which PSV neutralization IC50 value belongs to L6.dP03H10 (antibody, V domains shown) VH: QVQLVQSGAEVKKPGSSVKVSCKASGGTFSIYAITWVRQAPGQGLEWMGGIIPIIGTANYAQKFQGRVTITADKSTSTAYMELSSLRSEDTAVYYCARDFRYCSSTRCYFWFDPWGQGTLVTVSS VL: DIQMTQSPSSLSASVGDRVTITCRASQNISSYLNWYQQEAGKAPKLLIYAASSLQSGVPSRFSGSGSGTDFTLTISSLQPEDFATYYCQQSYSTPRTFGQGTKVDIK ?
[A] > 50 µg/mL

[Q] Same read-out for L12.bP11A11 (antibody, V domains shown, human IgG1) VH: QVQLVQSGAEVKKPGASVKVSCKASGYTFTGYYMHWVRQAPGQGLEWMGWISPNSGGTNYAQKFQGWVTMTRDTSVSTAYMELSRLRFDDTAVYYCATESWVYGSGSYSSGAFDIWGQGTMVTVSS VL: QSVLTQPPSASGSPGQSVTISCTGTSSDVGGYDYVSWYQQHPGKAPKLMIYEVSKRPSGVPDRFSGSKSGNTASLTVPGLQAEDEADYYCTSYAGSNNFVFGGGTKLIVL ?
[A] > 50 µg/mL

---
[Q] Which PSV neutralization IC50 value belongs to L12.cP08D07 (antibody, V domains shown, human IgG1) VH: QVQLQESGPGLVKPSETLSLTCTVSGGSISSSSYYWGWIRQPPGKGLEWIGSIYYSGSTYYNPSLKSRVTISVDTSKNQFSLKLSSVTAADTAVYYCARQGDCSTTSCAYDYWGQGTLVTVSS VL: SYELTQPPSVSVSPGQTARITCSGDALPKQYAYWYQQKPGQAPVLVIYKDSERPSGIPERFSGSSSGTTATLTISGVQAEDEADYYCQSADSSGTYLVVFGGGTKLAVL ?
[A] > 50 µg/mL
